// reported Relative activity in presence of inhibitor/metal ion, the present enzyme per item
- ASSAYED SYSTEM: acetylpolyamine amidohydrolase (the present enzyme, partially purified product) (Mycoplana ramosa)
- Construct: novel acetylpolyamine amidohydrolase of the present invention accumulated within the grown cells; made in house; host or cells: Mycoplana (natural producer; cells grown in culture)
- Sequence (Q48935 whole entry): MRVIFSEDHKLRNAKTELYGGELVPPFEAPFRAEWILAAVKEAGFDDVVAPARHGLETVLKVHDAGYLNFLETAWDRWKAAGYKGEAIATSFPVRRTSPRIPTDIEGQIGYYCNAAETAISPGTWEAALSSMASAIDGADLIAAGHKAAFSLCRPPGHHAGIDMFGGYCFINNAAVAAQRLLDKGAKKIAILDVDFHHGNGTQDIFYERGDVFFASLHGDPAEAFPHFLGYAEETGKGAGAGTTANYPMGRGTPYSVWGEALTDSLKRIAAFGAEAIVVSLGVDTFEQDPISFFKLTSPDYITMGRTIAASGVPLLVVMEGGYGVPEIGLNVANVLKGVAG
- EXPERIMENTAL DETAILS: Effects of inhibitors and metal ions, partially purified present enzyme
- Type: biochemical, Mycoplana bullata
- CONDITION DETAILS: concentration of 1mM; acetylputrescine as substrate; no addition = 100%
Record the value in %, omitting the unit from your answer.

Example entries begin here.
compound=[Ni+2] units_text=% quantitative_readout=81
compound=O=C(O)c1cc[c]([Hg][Cl])cc1 units_text=% quantitative_readout=4
compound=[Zn+2] units_text=% quantitative_readout=100

Query: // fetch Relative activity in presence of inhibitor/metal ion, the present enzyme given entry [Cu+2]
Reply: 99

Query: Give me measured Relative activity in presence of inhibitor/metal ion, the present enzyme, please, for this compound: [Mg+2]
Reply: 97

Query: Give the reported Relative activity in presence of inhibitor/metal ion, the present enzyme for this compound. [N-]=[N+]=[N-].[Na+]
Reply: 90

Query: Provide one value: measured Relative activity in presence of inhibitor/metal ion, the present enzyme of [Mn+2]
Reply: 124

Query: Return reported Relative activity in presence of inhibitor/metal ion, the present enzyme. Input compound: NO [Hydroxylamine]
Reply: 24
